- protocol-text: DPPH radical scavenging activity assay
- Assay type: biochemical
- condition-summary: 492.80 ppm; n = 3
Collected DPPH Clearance rate values appear next to each entry.
Numbers only; they are read as %.

Guide cases for DPPH Clearance rate, answers given:
Query: Supply DPPH Clearance rate value. Item: O=C1O[C@H]([C@@H](O)CO)C(O)=C1O [Vc, vitamin C]
Reply: 99.06

Query: Give DPPH Clearance rate for COc1cc(C2Oc3cc([C@H]4Oc5cc(O)cc(O)c5C(=O)[C@@H]4O)ccc3OC2CO)ccc1O (stereo partly shown) [B, Silibinin]
Reply: 65.88

Query: Give DPPH Clearance rate for the following molecule: O=C(O)CCSCCC(=O)O [C, 3,3′-Thiodipropionic acid]
Reply: 59.36

Others:
Query: Supply measured DPPH Clearance rate of COc1cc(C2Oc3cc([C@H]4Oc5cc(O)cc(O)c5C(=O)[C@@H]4O)ccc3OC2COC(=O)CCSCCC(=O)OCC2Oc3ccc([C@H]4Oc5cc(O)cc(O)c5C(=O)[C@@H]4O)cc3OC2c2ccc(O)c(OC)c2)ccc1O (stereo partly shown) [Compound of Formula (I)] in your reply.
Reply: 84.70
